# test_system: Interleukin-8 (IL8, CXCL8), C-terminal His-tagged (Homo sapiens, UniProt P10145 SEQ:1-72)
# Sequence (P10145 28-99): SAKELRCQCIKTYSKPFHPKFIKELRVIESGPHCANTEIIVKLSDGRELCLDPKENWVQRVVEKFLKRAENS
# assay_info: TR-FRET, 500 pM IL8; Table 10 gives 2 nM; bead flow 13 nM
# condition_notes: tags: C-terminal 6xHis (Sino Biological); label: Alexa Fluor 647; stem-loop (3 stems, 4 loops)
readout_label: pKd
As a rule, pKd stands for the negative log10 of the concentration, concentration in M.

// returns reported pKd for input UGAUGACGGUAGAUUACGGGUAGAGUGACCGCAUCU (ssRNA, 2'-F G, 2'-OMe A/C/U, 5' C6NH2, 3' idT) [Aptamer 3]
9.67
